The measurements presented in this section are drawn from PubChem BioAssay (NCI).

Test system: MOLT-4 leukemia
Test: NCI-60 one-dose screen, 48 h (100 = growth as untreated, 0 = no growth, -100 = all killed)
Conditions: 10 µM unless noted
Compounds without any hit were thinned out: in the full panel of roughly 83,000, 20% have a hit.
experimental endpoint: growth (%)
Numbers only, in %.

[
  {
    "molecular string": "COc1ccc(/C(=N\\NC(N)=S)c2ccc(Cl)cc2)cc1OC",
    "tgt": "MOLT-4 leukemia",
    "growth, %": 29.5
  },
  {
    "molecular string": "O=C(CSc1nnc(-c2ccc(Cl)cc2)n1-c1ccccc1)Nc1cccc(F)c1",
    "tgt": "MOLT-4 leukemia",
    "growth, %": 85.8
  },
  {
    "molecular string": "CC(C)=CCC[C@](C)(O)[C@H]1CC[C@]2(C)[C@@H]1CC[C@@H]1[C@@]3(C)CC[C@H](N)C(C)(C)[C@@H]3CC[C@]12C",
    "tgt": "MOLT-4 leukemia",
    "growth, %": 4.46
  }
]

Look up growth for the entries below, preserving their order.
1. O=C(/C=C/c1cccc(F)c1)c1cccc(OCCCOc2cccc(C(=O)/C=C/c3cccc(F)c3)c2)c1
2. C=C(C)[C@@H]1CC[C@]2(COCCCNCCCN)CC[C@]3(C)[C@H](CC[C@@H]4[C@@]5(C)CC[C@H](O)C(C)(C)[C@@H]5CC[C@]43C)[C@@H]12
3. O=c1[nH][nH]c(-c2ccc(F)cc2)c1-c1nc2ccccc2s1

[56.3, -34.5, 95.8]

Hello, I would appreciate it if you could give growth for each entry below.
1. O=C1[C@H]2Cc3c([nH]c4ccccc34)[C@H](c3ccc(Cl)cc3)N2C(=O)CN1C1CCN(CC2CCCCC2)CC1
2. C[C@]12CC[C@H]3[C@@H](CC=C4C[C@@H](O)CC[C@@]43C)[C@@H]1CC[C@@H]2[C@](C)(O)CCc1cccnc1
3. O=c1nc(Nc2ccc([N+](=O)[O-])cc2O)sc2ccccc12
4. COc1cc(-c2nc(-c3ccccc3)[nH]c2-c2ccnc(NCCCNS(=O)(=O)c3ccc(C)cc3)n2)ccc1F
5. Cc1ccc(Nc2nc(SC(C)C)nc(-c3ccccc3)c2C#N)cc1
6. CCCCSC1=C(Cl)CN(c2ccc(Cl)cc2)C1=O
7. NCCNC(=O)c1cccc(COc2ccccc2NC(=O)c2cc(Cl)c(Cl)[nH]2)c1

1. 35.1
2. 48.9
3. 31.1
4. 45.1
5. 100
6. 86.2
7. 89.5

* * *

Test system: IGROV1 ovarian
Assay: NCI-60 one-dose screen, 48 h (100 = growth as untreated, 0 = no growth, -100 = all killed)
Details: 10 µM unless noted
Procedure: Growth inhibition of the IGROV1 human tumor cell line is measured as a screen for anti-cancer activity. Cells are grown in 96 well plates and exposed to the test compound for 48 hours. Compounds are tested at a single concentration, which is 10^-5 M for most compounds. The reported endpoint is percent growth (GI% or GIPRCNT), where numbers from 0 - 100% represent growth inhibition, and numbers from -100% - 0 represent cell death. For example, a value of 40 represents 60% growth inhibition. […]
About 83,000 compounds went through this panel and 20% of them were active in at least one assay; those are over-represented in the sample as a whole.
experimental endpoint: growth (%)
Numbers only, in %.

Solved cases below.
[
  {
    "molecule": "N#Cc1c(-c2cccs2)c(C#N)c(=O)n(Cc2nc3ccccc3[nH]2)c1N",
    "growth (%)": 61.7
  },
  {
    "molecule": "CC1=Cc2ccccc2OC12C=Cc1ccccc1O2 (stereo not given)",
    "growth (%)": 69.1
  },
  {
    "molecule": "C#CCOc1ccccc1/C=N/Nc1nc(-c2ccc(Cl)cc2)cs1",
    "growth (%)": 77.8
  },
  {
    "molecule": "CC1(C)CC[C@]2(C(=O)O)CC[C@]3(C)C(=CC[C@@H]4[C@@]5(C)CC[C@H](NOCCCN)C(C)(C)[C@@H]5CC[C@]43C)[C@@H]2C1",
    "growth (%)": 99.3
  }
]

List the reported growth of each molecule below.
1. C#Cc1nc(/C=C\CCCCCCC(=O)NO)cs1
2. C=C(C)[C@@H]1CC[C@]2(C(=O)O)CC[C@]3(C)[C@H](CC[C@@H]4[C@@]5(C)C/C(=C/c6ccccn6)C(=O)C(C)(C)[C@@H]5CC[C@]43C)[C@@H]12

[-68.2, 51.6]

Could I get growth for every one of these entries?
1. Fc1ccc2nc(-c3cnn4cccnc34)sc2c1
2. C#CCN(C)CCCOc1ccc(NCc2ccc(/C=C/C(=O)NO)cc2)cc1Cl
3. Fc1cc(F)cc(NNC(=S)c2ccccc2)c1
4. O=C1/C(=C/c2cc(F)cc(F)c2)Cc2cc3c(cc21)OCO3

1. 49.2
2. -35.7
3. 57.2
4. 36.9

* * *

Test system: NCI-H522 lung
Assay: NCI-60 one-dose screen, 48 h
Conditions: 10 µM unless noted
This is part of a sample that, as a whole, favours compounds with a hit. Of some 83,000 tested, about 20% had one in any assay. Active and inactive are the calls of the source. Rule for the calls: active = growth percent below 10; inactive = the rest.
# valid calls are 1.0 = active, 0.0 = inactive; nothing else

[
  {
    "compound": "CN1CCN(CCNc2nc(-c3cccc(NS(=O)(=O)c4cccc5c(N(C)C)cccc45)c3)cs2)CC1",
    "classification": 0.0
  },
  {
    "compound": "CC(=O)OCCCCN1C=C/C(=C\\C(=O)n2ccc3ccccc32)c2ccccc21",
    "classification": 0.0
  },
  {
    "compound": "COc1ccc(C(=O)c2c(N)c(C#N)cn2-c2ccc(Cl)cc2Cl)cc1",
    "classification": 0.0
  },
  {
    "compound": "COc1ccc2c(c1)c(/C=N/Nc1ccnc3cc(Cl)ccc13)cn2C",
    "classification": 1.0
  },
  {
    "compound": "CCCCN1C(=O)/C(=c2\\sc3n(c2=O)C2C(NN=3)N(CC)C(=O)N2CC)c2cccc(C)c21 (centres undefined)",
    "classification": 0.0
  },
  {
    "compound": "O=C1/C(=C/c2cc(F)cc(F)c2)Cc2cc3c(cc21)OCO3",
    "classification": 1.0
  },
  {
    "compound": "CC(C)Sc1nc(-c2ccccc2)c(C#N)c(N2CCOCC2)n1",
    "classification": 0.0
  },
  {
    "compound": "CCOP(=O)(OCC)OC[C@]12CC[C@@H](C)[C@H](C)C1C1=CC[C@@H]3[C@@]4(C)CCCNC(C)(C)[C@@H]4CC[C@@]3(C)[C@]1(C)CC2 (some centres undefined)",
    "classification": 0.0
  }
]

Each compound tested received a call. Report the one for C#Cc1nc(C(=O)NCCCCCCC(=O)NO)cs1 .
1.0

* * *

Exercise: state measured growth for each of the compounds provided.
Tested on: TK-10 renal
Test: NCI-60 one-dose screen, 48 h (100 = growth as untreated, 0 = no growth, -100 = all killed)
Details: 10 µM unless noted
About 83,000 compounds went through this panel and 20% of them were active in at least one assay; those are over-represented in the sample as a whole. Active and inactive are the calls of the source. Rule for the calls: active = growth percent below 10; inactive = the rest.

Example cases with answers are listed next.
[
  {
    "molecular string": "C#CCOc1ccccc1/C=N/Nc1nc(-c2ccc(Cl)cc2)cs1",
    "growth": "145% (inactive)"
  },
  {
    "molecular string": "CN1CCC[C@]2(C)[C@H]3CC[C@@H]4[C@@H]5[C@H]6OC[C@@]5(CCC6(C)C)CC[C@@]4(C)[C@]3(C)CC[C@H]2C1(C)C",
    "growth": "108% (inactive)"
  },
  {
    "molecular string": "CC1CCN(CC(=O)Nn2c(COc3ccccc3)nc3ccccc3c2=O)CC1",
    "growth": "125% (inactive)"
  }
]

Tell me measured growth for O=C1[C@H]2Cc3c([nH]c4ccccc34)[C@H](c3ccc(Br)cc3)N2C(=O)CN1C1CCN(CC2CCCCC2)CC1 please.
121% (inactive)

* * *

Kindly supply the reported growth values for the records listed here.
Tested on: BT-549 breast
Experiment: NCI-60 one-dose screen, 48 h (100 = growth as untreated, 0 = no growth, -100 = all killed)
Conditions: 10 µM unless noted
Compounds without any hit were thinned out: in the full panel of roughly 83,000, 20% have a hit.
Give bare numbers, in %.

Answered examples (7):
[
  {
    "molecular string": "CSc1ccc(C(=NNS(=O)(=O)c2ccc(C)cc2)c2ccc(Cl)cc2)cc1",
    "tgt": "BT-549 breast",
    "measured number": 118
  },
  {
    "molecular string": "O=C(NCCNc1cc(-c2cn(-c3ccccc3)nc2-c2cccc(O)c2)ccn1)Nc1cc(C(F)(F)F)cc(C(F)(F)F)c1",
    "tgt": "BT-549 breast",
    "measured number": 99.4
  },
  {
    "molecular string": "O=C(N/N=C\\c1ccc(F)cc1)c1ccc2nc(-c3ccc(Br)cc3)[nH]c2c1",
    "tgt": "BT-549 breast",
    "measured number": 73.5
  },
  {
    "molecular string": "C#CCN(C)CCCOc1ccc(NCc2ccc(C(=O)NO)cc2)cc1Cl",
    "tgt": "BT-549 breast",
    "measured number": 75.4
  },
  {
    "molecular string": "CN1CCN(c2ccc(C(=O)/C=C/c3cc(F)cc(C(F)(F)F)c3)cc2)CC1",
    "tgt": "BT-549 breast",
    "measured number": 71.2
  },
  {
    "molecular string": "COc1cc(C(C)=C(c2ccc(OCCN(C)C)cc2)c2ccc(OCCN(C)C)cc2)ccc1F",
    "tgt": "BT-549 breast",
    "measured number": 107
  },
  {
    "molecular string": "Cn1c2nc3ccccc3c-2cc2ccccc21",
    "tgt": "BT-549 breast",
    "measured number": 101
  }
]

Kindly consider the entry below.
Consider the compound C#C[C@]1(O)CC[C@H]2[C@@H]3CC=C4c5sc(N6CCN(C)CC6)nc5CC[C@]4(C)[C@H]3CC[C@@]21C and give its recorded growth.
16.9
